Provenance of the data: ChEMBL document CHEMBL5365467

Assay: Cmax in non human primate at 2 mg/kg, po measured upto 24 hrs by LC-MS/MS analysis
Format: ADME, organism-based
Set-up: dose 2 mg/kg, time < 24 hrs, route po
Details: primates, in vivo
QUANTITY KIND: Cmax (ng/mL)
Only the number, expressed in ng/mL, is required.

Which Cmax value belongs to C[C@H]1CC2(CCN(c3ccc(C(=O)N4CCC(CN5Cc6cc7c(cc6C5)C(=O)N(C5CCC(=O)NC5=O)C7=O)CC4)cc3)CC2)CN1c1ccc(C#N)c(Cl)c1 (stereo partly specified) ?
1520

* * *

Test: Metabolic stability in human liver microsome assessed as half life measured upto 45 mins in presence of NADPH by LC-MS/MS analysis
Format: ADME
Conditions: liver microsomes
QUANTITY KIND: half-life at […]

Which half-life at […] value belongs to C[C@H]1CC2(CCN(c3ccc(C(=O)N4CCC(CN5Cc6cc7c(cc6C5)C(=O)N(C5CCC(=O)NC5=O)C7=O)CC4)cc3)CC2)CN1c1ccc(C#N)c(Cl)c1 (stereo partly specified) ?
> 1 h
